test_system: Acetylcholinesterase (Homo sapiens)
protocol: Inhibition of recombinant human AChE using acetylthiocholine iodide as substrate incubated for 5 mins relative to control
Calls of active or inactive are those of the source. No cut-off for these calls is given here.
recorded_metric: inhibition

Below: 4 compounds and their reported inhibition.
COc1ccc(C(C)=O)c(OC(=O)N2CCCCC2)c1
inactive
CCN(C)C(=O)Oc1cccc([C@H](C)N(C)C)c1
4.65%
COc1ccc(C(C)=O)c(OC(=O)N2CCC(C)CC2)c1
23%
COc1ccc(C(C)=O)c(OC(=O)N(C)Cc2ccc(Cl)cc2)c1
inactive

Now, please, on to the next compound.
Report inhibition for COc1ccc(C(C)=O)c(OC(=O)N(C)Cc2ccc(F)cc2)c1 please.
10.4%

* * *

protocol: in vitro
study_conditions: PAMPA, pH 7.4
Description: Permeability of the compound in PBS at pH 7.4 incubated for 18 hrs by PAMPA-BBB assay
recorded_metric: Papp at 18 h (×10⁻⁶ cm/s)
// return numeric value only (unit: ×10⁻⁶ cm/s, not printed)

Can you share its Papp at 18 h? I mean this compound: COc1ccc(C(C)=O)c(OC(=O)N2CCCCC2)c1
17.5

Would you mind telling me what Papp at 18 h value was observed for COc1ccc(C(C)=O)c(OC(=O)N(C)Cc2ccc(F)cc2)c1 ?
16.4

* * *

test_system: Cholinesterase (Equus caballus)
recorded_metric: pIC50
The read-out pIC50 is expressed as -log10 of concentration in moles per litre.

Lab request: please report pIC50 under test system Cholinesterase (Equus caballus) for COc1ccc(C(C)=O)c(OC(=O)N(C)Cc2cccc(Br)c2)c1
5.47

Checklist item: pIC50 tested on Cholinesterase (Equus caballus), entry COc1ccc(C(C)=O)c(OC(=O)N(C)Cc2ccc(F)cc2)c1 , value?
7.92

Missing value: pIC50, Cholinesterase (Equus caballus), entry COc1ccc(C(C)=O)c(OC(=O)N(C)Cc2ccc(Br)cc2)c1 . Fill in?
5.55

Recall the recorded pIC50 for COc1ccc(C(C)=O)c(OC(=O)Nc2ccc(Cl)cc2)c1 with Cholinesterase (Equus caballus) and state it.
5.90

Requested read-out pIC50, target or system Cholinesterase (Equus caballus), entry COc1ccc(C(C)=O)c(OC(=O)N2CCC(Cc3ccccc3)CC2)c1
6.51

Form field - read-out: pIC50; system: Cholinesterase (Equus caballus); submitted item: Cc1ccc(C(C)C)cc1OC(=O)N1CCCCC1
7.52

Notebook entry, Cholinesterase (Equus caballus) assay: pIC50 of CCN(Cc1ccc(Cl)cc1)C(=O)Oc1cc(OC)ccc1C(C)=O = ?
6.38

Lab note: need pIC50 with Cholinesterase (Equus caballus) for entry COc1ccc(C(C)=O)c(OC(=O)N2CCCCC2)c1 , please look it up.
8.22

Give Cholinesterase (Equus caballus) pIC50 for CCN(C)C(=O)Oc1cc(OC)ccc1C(C)=O
5.43

Notebook entry, Cholinesterase (Equus caballus) assay: pIC50 of C=CCc1ccc(OC(=O)N2CCCC2)c(OC)c1 = ?
5.70

Report pIC50 for COc1ccc(C(C)=O)c(OC(=O)N(C)Cc2ccc(Cl)cc2)c1 tested on Cholinesterase (Equus caballus).
7.24

Write down the reported pIC50 of Cc1ccc(C(C)C)cc1OC(=O)N(C)C , test system: Cholinesterase (Equus caballus).
6.23

* * *

Reported pIC50, Cholinesterase (Equus caballus, UniProt P81908).
# pIC50: negative log10 of molar concentration; output just the value

Returns the measured pIC50 for the input compound. Input: COc1ccc(C(C)=O)c(OC(=O)N2CCc3ccccc3C2)c1
4.94

Param item = COc1ccc(C(C)=O)c(OC(=O)N2CCCC2)c1 ; retrieve measured pIC50.
5.71

Quick one: pIC50 of COc1ccc(C(C)=O)c(OC(=O)N2CCc3cc(OC)c(OC)cc3C2)c1 ?
5.45

If you can, please state the reported pIC50 value of COc1ccc(C(C)=O)c(OC(=O)N(C)Cc2ccccc2)c1 .
6.72

* * *

A short record of log10(IC50) observed with Cholinesterase (Equus caballus, UniProt P81908) follows.
Sequence (P81908 whole entry): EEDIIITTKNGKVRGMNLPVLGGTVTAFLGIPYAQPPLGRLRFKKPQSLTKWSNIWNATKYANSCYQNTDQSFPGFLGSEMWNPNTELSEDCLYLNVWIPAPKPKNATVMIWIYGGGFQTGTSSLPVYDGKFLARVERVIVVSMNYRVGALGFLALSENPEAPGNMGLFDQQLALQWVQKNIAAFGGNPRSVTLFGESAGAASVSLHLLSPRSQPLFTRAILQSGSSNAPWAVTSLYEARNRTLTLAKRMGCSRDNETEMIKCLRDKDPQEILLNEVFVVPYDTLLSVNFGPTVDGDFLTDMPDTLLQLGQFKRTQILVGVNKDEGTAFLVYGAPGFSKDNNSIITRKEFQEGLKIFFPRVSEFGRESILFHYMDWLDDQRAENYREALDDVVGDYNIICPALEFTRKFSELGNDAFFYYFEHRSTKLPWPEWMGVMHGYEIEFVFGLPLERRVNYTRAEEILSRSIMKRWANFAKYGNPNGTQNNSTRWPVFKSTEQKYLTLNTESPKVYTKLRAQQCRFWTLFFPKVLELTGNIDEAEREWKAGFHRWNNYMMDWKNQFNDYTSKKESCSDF
Remember, log10 of IC50, in nM.

I am curious: what log10(IC50) value has been reported for Cc1ccc(C(C)C)cc1OC(=O)N(C)Cc1cccc(Br)c1 ?
3.58

Form field: reported log10(IC50) of CNC(=O)Oc1cc(OC)ccc1C(C)=O
3.40

Sample COc1ccc(C(C)=O)c(OC(=O)N(C)Cc2cccc(F)c2)c1 — what was its log10(IC50)?
2.60

Which log10(IC50) reading was recorded for the compound CCN(C)C(=O)Oc1cc(C(C)C)ccc1C ?
2.89

Name the reported log10(IC50) value associated with the compound CNC(=O)Oc1cc(C(C)C)ccc1C
3.47

Could you share which log10(IC50) value was measured for COc1ccc(C(C)=O)c(OC(=O)N2CCC(C)CC2)c1 ?
1.90

Which log10(IC50) value is on record for COc1ccc(C(C)=O)c(OC(=O)N(C)Cc2ccccc2F)c1 ?
2.97

Could you share which log10(IC50) value was measured for Cc1ccc(C(C)C)cc1OC(=O)N(C)Cc1cccc(Cl)c1 ?
3.05

Endpoint output: log10(IC50) of COc1ccc(C(C)=O)c(OC(=O)N2CCSC2)c1 . Value?
2.81

For the compound shown here, COc1ccc(C(C)=O)c(OC(=O)N(C)C)c1 , give the reported log10(IC50).
3.21

What value of log10(IC50) has been reported for the following compound? C=CCc1ccc(OC(=O)N2CCCCC2)c(OC)c1
2.49

What value of log10(IC50) has been recorded for this entry: Cc1ccc(C(C)C)cc1OC(=O)N(C)Cc1ccc(Br)cc1
3.29

// returns reported log10(IC50) for input Cc1ccc(C(C)C)cc1OC(=O)N1CCCC1
2.83

* * *

Kindly state inhibition for each of the entries shown.
test_system: Acetylcholinesterase (Electrophorus electricus)
protocol: Inhibition of electric eel AChE using acetylthiocholine iodide as substrate preincubated with enzyme for 20 mins followed by substrate addition and measured after 20 mins by Ellman's method relative to control
Parameters: concentration or dose not given beside the values
study_conditions: time 40.0 min

Any idea what its inhibition is? The molecule is C=CCc1ccc(OC(=O)N(C)Cc2ccc(Br)cc2)c(OC)c1
57%

Entry C=CCc1ccc(OC(=O)N2CCc3ccccc3C2)c(OC)c1 has what inhibition?
23%

Entry under review: C=CCc1ccc(OC(=O)N(C)C)c(OC)c1 . Reported inhibition?
69%

Given the entry C=CCc1ccc(OC(=O)N(C)CC)c(OC)c1 , report its measured inhibition.
74%

May I ask what inhibition has been recorded for C=CCc1ccc(OC(=O)N(C)Cc2cccc(Br)c2)c(OC)c1 ?
67%

Would you kindly share the measured inhibition for C=CCc1ccc(OC(=O)NC)c(OC)c1 ?
53%

* * *

Please respond with reported IC50 for every item in the list.
test_system: UniProt O00519
Sequence (O00519 whole entry): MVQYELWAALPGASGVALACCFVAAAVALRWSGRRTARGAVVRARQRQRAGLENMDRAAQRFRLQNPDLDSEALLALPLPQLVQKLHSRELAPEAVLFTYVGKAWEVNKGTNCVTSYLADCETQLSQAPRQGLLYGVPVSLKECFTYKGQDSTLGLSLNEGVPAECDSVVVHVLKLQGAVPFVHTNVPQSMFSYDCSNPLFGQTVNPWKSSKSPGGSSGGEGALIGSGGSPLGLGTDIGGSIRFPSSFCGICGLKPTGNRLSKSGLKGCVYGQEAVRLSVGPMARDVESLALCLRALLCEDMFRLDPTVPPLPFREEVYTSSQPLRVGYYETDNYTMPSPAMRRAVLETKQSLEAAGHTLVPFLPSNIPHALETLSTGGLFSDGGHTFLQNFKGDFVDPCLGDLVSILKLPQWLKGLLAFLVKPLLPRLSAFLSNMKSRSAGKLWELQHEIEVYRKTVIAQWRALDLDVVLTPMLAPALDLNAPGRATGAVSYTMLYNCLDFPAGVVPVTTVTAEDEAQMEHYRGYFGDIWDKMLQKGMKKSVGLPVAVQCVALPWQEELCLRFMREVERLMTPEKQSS
protocol: Inhibition of human FAAH using arachidonoyl amide as substrate incubated for 30 mins by fluorescence-based cayman assay
# number only, unit µM dropped from output

IC50 lookup needed for COc1ccc(C(C)=O)c(OC(=O)N2CCC(C)CC2)c1 , thanks.
28.4

Consider the compound COc1ccc(C(C)=O)c(OC(=O)N(C)Cc2ccc(F)cc2)c1 and give its measured IC50.
0.4

Bench note: what IC50 did O=C(Oc1ccc([N+](=O)[O-])cc1)N1CCN(Cc2cccc(Oc3ccccc3)c2)CC1 show?
0.011

Give the measured IC50 of COc1ccc(C(C)=O)c(OC(=O)N2CCCCC2)c1 .
8.02

Quick one: IC50 of CCN(C)C(=O)Oc1cccc([C@H](C)N(C)C)c1 [RIVASTIGMINE] ?
14

Give the measured IC50 of COc1ccc(C(C)=O)c(OC(=O)N(C)Cc2ccc(Cl)cc2)c1 .
16.6

* * *

test_system: Cholinesterase (Homo sapiens)
Sequence (P06276 whole entry): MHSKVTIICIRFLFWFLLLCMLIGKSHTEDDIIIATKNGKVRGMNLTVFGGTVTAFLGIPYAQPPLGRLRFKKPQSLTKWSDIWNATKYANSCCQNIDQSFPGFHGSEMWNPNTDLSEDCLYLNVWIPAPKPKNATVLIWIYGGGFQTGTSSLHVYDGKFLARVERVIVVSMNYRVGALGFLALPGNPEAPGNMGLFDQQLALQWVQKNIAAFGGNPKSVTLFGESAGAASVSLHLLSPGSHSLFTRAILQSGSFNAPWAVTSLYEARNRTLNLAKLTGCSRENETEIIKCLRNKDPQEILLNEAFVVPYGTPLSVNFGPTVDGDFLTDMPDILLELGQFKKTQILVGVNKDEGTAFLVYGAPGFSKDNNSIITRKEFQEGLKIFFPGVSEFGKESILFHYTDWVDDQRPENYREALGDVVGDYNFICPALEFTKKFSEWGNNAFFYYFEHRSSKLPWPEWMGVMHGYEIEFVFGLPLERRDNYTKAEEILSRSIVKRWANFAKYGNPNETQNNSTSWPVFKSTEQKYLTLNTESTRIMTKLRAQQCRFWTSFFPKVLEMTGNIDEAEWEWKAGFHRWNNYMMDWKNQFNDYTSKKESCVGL
protocol: Binding affinity to human BuChE (unknown origin) assessed as equilibrium dissociation constant at 0.025 to 100 uM incubated for 60 mins
recorded_metric: Kd (µM)
Lab book: enter the figure in µM, no units written.

Fill blank: measured Kd of the molecule COc1ccc(C(C)=O)c(OC(=O)N2CCCCC2)c1 is ____.
0.3

* * *

recorded_metric: IC50 (nM)
State the answer as a number, implicitly in nM.

Give recorded IC50 with Cholinesterase (Homo sapiens) for the following compound: COc1ccc(C(C)=O)c(OC(=O)N2CCCCC2)c1
113

Request body: readout IC50, system Cholinesterase (Homo sapiens), query COc1ccc(C(C)=O)c(OC(=O)N2CCC(C)CC2)c1 . Return the value.
1930

Notebook: pull reported IC50 for Cholinesterase (Homo sapiens), entry COc1ccc(C(C)=O)c(OC(=O)N(C)Cc2ccc(F)cc2)c1
81

IC50 of COc1ccc(C(C)=O)c(OC(=O)N(C)Cc2ccc(Cl)cc2)c1 on Cholinesterase (Homo sapiens)?
89

* * *

test_system: UniProt:O42275
Sequence (O42275 24-633 limits assumed): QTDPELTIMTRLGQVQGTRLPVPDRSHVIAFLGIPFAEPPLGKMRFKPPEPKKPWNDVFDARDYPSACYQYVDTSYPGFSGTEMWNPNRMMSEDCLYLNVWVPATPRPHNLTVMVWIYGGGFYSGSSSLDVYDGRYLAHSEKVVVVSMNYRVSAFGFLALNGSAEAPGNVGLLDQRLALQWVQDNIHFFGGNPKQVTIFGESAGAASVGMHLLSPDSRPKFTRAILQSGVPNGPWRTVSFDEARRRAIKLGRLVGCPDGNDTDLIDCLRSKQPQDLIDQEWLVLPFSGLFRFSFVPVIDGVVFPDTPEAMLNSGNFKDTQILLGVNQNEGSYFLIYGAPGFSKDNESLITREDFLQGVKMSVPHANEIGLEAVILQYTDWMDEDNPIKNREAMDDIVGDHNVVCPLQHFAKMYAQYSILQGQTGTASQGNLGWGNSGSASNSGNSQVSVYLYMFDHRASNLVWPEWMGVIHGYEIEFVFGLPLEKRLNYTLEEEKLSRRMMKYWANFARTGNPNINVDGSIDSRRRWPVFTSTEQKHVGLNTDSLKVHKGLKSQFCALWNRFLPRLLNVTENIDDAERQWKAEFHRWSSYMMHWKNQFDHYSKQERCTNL
protocol: Inhibition of electric eel AChE using acetylthiocholine iodide as substrate preincubated with enzyme for 20 mins followed by substrate addition and measured after 20 mins by Ellman's method
Set-up: concentration or dose not given beside the values
study_conditions: time 40.0 min
Active and inactive are the calls of the source. The rule behind the calls is not given here.
recorded_metric: inhibition

C=CCc1ccc(OC(=O)N(C)Cc2cccc(Br)c2)c(OC)c1
17%
C=CCc1ccc(OC(=O)N2CCCCC2)c(OC)c1
42%
Cc1ccc(C(C)C)cc1OC(=O)N(C)Cc1cccc(Br)c1
37%
CCN(C)C(=O)Oc1cc(C(C)C)ccc1C
inactive
Cc1ccc(C(C)C)cc1OC(=O)N(C)Cc1cccc(Cl)c1
36%

Now consider a different molecule.
Reported inhibition for Cc1ccc(C(C)C)cc1OC(=O)N1CCCC1 : what is it?
inactive

Origin of values: ChEMBL document CHEMBL6087398
